Test: Caco-2 permeability assay
Type: in vitro ADME, human
Conditions: human, Caco-2, pH 7.4, 10 µM, + Verapamil (P-glycoprotein inhibitor)
QUANTITY_NAME: Papp A→B at 2 h, 10 μM (×10⁻⁶ cm/s)
Supply the numeric figure in ×10⁻⁶ cm/s, leaving out any unit text.

Look at this compound and give its reported Papp A→B at 2 h, 10 μM. CCC(C)CNCC(=O)N1CCc2sccc2C1c1cccc(C)c1 (stereo not drawn)
14.2

# repeat for C=CCNCC(=O)N1CCc2sccc2C1COc1ccc(Cl)cc1 (stereo not drawn)
8.3

# repeat for CCC(C)CNCC(=O)N1CCc2sccc2C1c1cccc(C)n1 (stereo not drawn)
35.5

---

Experiment: MTS assay, cytotoxicity (72 h)
Type: cell-based
Conditions: human, HEK293a SHH+ cells; 25 μM, 72 h
QUANTITY_NAME: viability at 72 h, 25 µM (%)
Supply the numeric figure in %, leaving out any unit text.

Look at this compound and give its reported viability at 72 h, 25 µM. Cc1cccc(C2c3ccsc3CCN2C(=O)CNCCC(C)C)n1 (centres unmarked) [Compound 25]
27

# repeat for CC(C)CNCC(=O)N1CCc2ccccc2C1c1ccccc1 (stereo in doubt) [Compound 43]
97

# repeat for CCC(C)CNCC(=O)N1CCc2sccc2C1c1ccccn1 (centres unmarked) [Compound 19]
75

# repeat for CCC(C)CNCC(=O)N1CCc2cc(OC)c(OC)cc2C1c1ccccc1 (centres unmarked) [Compound 44]
95

# repeat for CCC(C)CNCC(=O)N1CCc2ccc(Cl)cc2C1c1ccccc1 (centres unmarked) [Compound 45]
14

---

Test: in vitro
Conditions: PAMPA, pH 6.5, PAMPA Permeability Class pH 6.5
QUANTITY_NAME: Papp at 16 h, 10 μM

Look at this compound and give its reported Papp at 16 h, 10 μM. Cc1cc(=O)n(-c2ccccc2)n1C [Antipyrine]
5 to 20 ×10⁻⁶ cm/s

---

Test: Caco-2 permeability assay
Assay type: in vitro ADME, human
Conditions: human, Caco-2, pH 7.4, 10 µM, without Verapamil
Give measured Papp A→B at 2 h, 10 μM for each item. Keep answers brief.
Supply the numeric figure in ×10⁻⁶ cm/s, leaving out any unit text.

Look at this compound and give its reported Papp A→B at 2 h, 10 μM. CCC(C)CNCC(=O)N1CCc2sccc2C1c1cccc(C)n1 (stereo not drawn)
39.2

# repeat for CCC(C)CNCC(=O)N1CCc2sccc2C1c1cccc(C)c1 (stereo not drawn)
17

# repeat for C=CCNCC(=O)N1CCc2sccc2C1COc1ccc(Cl)cc1 (stereo not drawn)
14.5

---

Assay: in vitro
Conditions: PAMPA, pH 7.4, PAMPA Papp pH 7.4
QUANTITY_NAME: Papp at 16 h, 10 μM (×10⁻⁶ cm/s)
Supply the numeric figure in ×10⁻⁶ cm/s, leaving out any unit text.

Look at this compound and give its reported Papp at 16 h, 10 μM. Cc1cc(=O)n(-c2ccccc2)n1C [Antipyrine]
7.3

---

Target: purified HHAT (Homo sapiens)
Construct: made in house
Sequence (Q5VTY9 whole entry): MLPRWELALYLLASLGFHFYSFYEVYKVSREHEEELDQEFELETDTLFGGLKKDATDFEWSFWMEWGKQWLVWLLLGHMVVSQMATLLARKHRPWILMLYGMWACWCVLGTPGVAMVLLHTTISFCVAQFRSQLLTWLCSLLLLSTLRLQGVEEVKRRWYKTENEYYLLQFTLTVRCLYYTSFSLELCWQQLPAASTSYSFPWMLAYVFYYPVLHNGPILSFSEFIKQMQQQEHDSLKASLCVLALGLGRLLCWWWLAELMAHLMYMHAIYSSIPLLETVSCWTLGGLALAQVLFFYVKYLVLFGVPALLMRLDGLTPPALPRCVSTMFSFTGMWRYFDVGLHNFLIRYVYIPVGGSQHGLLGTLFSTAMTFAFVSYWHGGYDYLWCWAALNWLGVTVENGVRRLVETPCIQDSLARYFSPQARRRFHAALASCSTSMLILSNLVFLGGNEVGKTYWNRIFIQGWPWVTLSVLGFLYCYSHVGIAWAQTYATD
Experiment: Acyl-cLIP assay, inhibition of purified HHAT
Type: biochemical
Give measured inhibition at 50 µM for each item. Keep answers brief.
Supply the numeric figure in %, leaving out any unit text.

Look at this compound and give its reported inhibition at 50 µM. CC(C)CNCC(=O)N1CCc2ccccc2C1c1ccccc1 (stereo not shown) [Compound 39]
86

# repeat for CC(C)CCNC(=O)N1CCc2ccccc2C1c1ccccc1 (stereo not shown) [Compound 40]
4

# repeat for CCC(C)CNCC(=O)N1CCc2cc(OC)c(OC)cc2C1c1ccccc1 (stereo not shown) [Compound 44]
8

# repeat for CCC(C)CNCC(=O)N1CCc2sccc2C1c1cccc(C)c1 (stereo not shown) [Compound 17]
88

# repeat for Cc1cccc([C@H]2c3ccsc3CCN2C(=O)CNCC(C)C)n1 [Compound 30]
95

# repeat for C=CCN1CCc2sccc2C1c1cccc(C)c1 (stereo not shown) [Compound 15]
-5

# repeat for C=CC(=O)N1CCc2sccc2C1c1cccc(C)c1 (stereo not shown) [Compound 16]
62

# repeat for C=CC(=O)N1CCn2cccc2C1c1ccccc1 (stereo not shown) [Compound 46]
12

# repeat for COc1ccccc1C1c2ccsc2CCN1C(C)=O (stereo not shown) [Compound 31]
81

# repeat for CC(=O)N1CCc2sccc2C1c1ccccc1O (stereo not shown) [Compound 33]
31
